This collection of values is drawn from ChEMBL document CHEMBL5325403.

System: Escherichia coli
Measurement protocol: Antibacterial activity against Escherichia coli ATCC 25922 assessed as inhibition of bacterial growth by continuous dilution method
Assay type: functional
Threshold-based label: MIC under 30 mg/L gives true, MIC not under 30 mg/L gives false.

In the record for "CC(=O)Nc1ccc(S(=O)(=O)/C(=C\c2ccc(C#N)cc2)C(=O)c2nccs2)cc1" , is MIC less than 30 mg/L? true

In the record for "CC(=O)Nc1ccc(S(=O)(=O)C/C(=N/OCc2ccc(Cl)cc2)c2nccs2)cc1" , is MIC less than 30 mg/L? true

In the record for "Nc1ccc(S(=O)(=O)C/C(=N/OCc2ccc(Cl)cc2Cl)c2nccs2)cc1" , is MIC less than 30 mg/L? true

In the record for "CCO/N=C(/CS(=O)(=O)c1ccc(NC(C)=O)cc1)c1nccs1" , is MIC less than 30 mg/L? true

In the record for "C#CCO/N=C(/CS(=O)(=O)c1ccc(N)cc1)c1nccs1" , is MIC less than 30 mg/L? false

In the record for "C=CCO/N=C(/CS(=O)(=O)c1ccc(NC(C)=O)cc1)c1nccs1" , is MIC less than 30 mg/L? true

In the record for "CC(=O)Nc1ccc(S(=O)(=O)C/C(=N/OCC#N)c2nccs2)cc1" , is MIC less than 30 mg/L? false

In the record for "CC(=O)Nc1ccc(S(=O)(=O)C/C(=N/O)c2nccs2)cc1" , is MIC less than 30 mg/L? false

In the record for "CC(=O)Nc1ccc(S(=O)(=O)C/C(=N/NC(=O)c2ccncc2)c2nccs2)cc1" , is MIC less than 30 mg/L? false

In the record for "Nc1ccc(S(=O)(=O)Nc2nccs2)cc1" , is MIC less than 30 mg/L? false

In the record for "CC(=O)Nc1ccc(S(=O)(=O)C/C(=N/NC(=O)c2ccccc2)c2nccs2)cc1" , is MIC less than 30 mg/L? false

In the record for "CC(=O)Nc1ccc(S(=O)(=O)C/C(=N/NC(=O)c2ccccc2O)c2nccs2)cc1" , is MIC less than 30 mg/L? false

In the record for "CC(=O)Nc1ccc(S(=O)(=O)/C(=C\c2ccc([N+](=O)[O-])cc2)C(=O)c2nccs2)cc1" , is MIC less than 30 mg/L? false

In the record for "CC(=O)Nc1ccc(S(=O)(=O)C/C(=N/NC(=O)c2cccnc2)c2nccs2)cc1" , is MIC less than 30 mg/L? false

In the record for "CCO/N=C(/CS(=O)(=O)c1ccc(N)cc1)c1nccs1" , is MIC less than 30 mg/L? false
